# Tested on: UO-31
# PROTOCOL DESCRIPTION: Growth inhibition of human UO31 cells incubated for 48 hrs by sulforhodamine B assay
# Type: functional, cell-based
# CONDITION NOTES: UO-31, 48 h, read-out: pGI50 (converted)
MEASURED METRIC: GI50 (µM)
Give the quantity in µM, number only.

Here's what some known entries look like.
O=C(Nc1cccc(-n2cc(-c3ccncc3)c(-c3cc(O)cc(Cl)c3)n2)c1)c1cc(C(F)(F)F)cc(C(F)(F)F)c1 :: 2.51
COc1cc(Cl)cc(-c2nn(-c3cccc(NC(=O)Nc4cccc(C(F)(F)F)c4)c3)cc2-c2ccncc2)c1 :: 1.02
COc1cc(Cl)cc(-c2nn(-c3cccc(NC(=O)Nc4ccc(Cl)c(Cl)c4)c3)cc2-c2ccncc2)c1 :: 1.91

# context switch: different compound, same GI50
// GI50 lookup, compound = COc1cc(Cl)cc(-c2nn(-c3cccc(NC(=O)Nc4ccc(Cl)c(C(F)(F)F)c4)c3)cc2-c2ccncc2)c1 , result: 1.66

* * *

# Tested on: NCI-H460
# PROTOCOL DESCRIPTION: Growth inhibition of human NCI-H460 cells assessed as cell growth at 0.1 uM incubated for 48 hrs by sulforhodamine B assay relative to control
# Assay type: functional
# CONDITION NOTES: NCI-H460, 48 h, read-out: Activity
// reported growth at 0.1 µM per item
Give the quantity in %, number only.

COc1cc(Cl)cc(-c2nn(-c3cccc(NC(=O)Nc4ccc(Cl)c(C(F)(F)F)c4)c3)cc2-c2ccncc2)c1 :: 102

// growth at 0.1 µM lookup, molecule = O=C(Nc1cccc(-n2cc(-c3ccncc3)c(-c3cc(O)cc(Cl)c3)n2)c1)Nc1ccc(Cl)c(C(F)(F)F)c1 , result: 102

// growth at 0.1 µM lookup, molecule = O=C(Nc1cccc(-n2cc(-c3ccncc3)c(-c3cc(O)cc(Cl)c3)n2)c1)Nc1ccc(Cl)c(Cl)c1 , result: 97

// growth at 0.1 µM lookup, molecule = O=C(Nc1cccc(-n2cc(-c3ccncc3)c(-c3cc(O)cc(Cl)c3)n2)c1)c1ccc(N2CCOCC2)c(C(F)(F)F)c1 , result: 104

* * *

# Test system: UACC-257
# PROTOCOL DESCRIPTION: Growth inhibition of human UACC257 cells incubated for 48 hrs by sulforhodamine B assay
# Assay type: functional, cell-based
# CONDITION NOTES: UACC-257, 48 h, read-out: GI50
Labelling field: enter yes if recorded GI50 is less than 2000 nM. Enter no if it equals or exceeds that cut-off.

Examples from the recorded data:
COc1cc(Cl)cc(-c2nn(-c3cccc(NC(=O)Nc4cccc(C(F)(F)F)c4)c3)cc2-c2ccncc2)c1 :: yes
O=C(Nc1cccc(-n2cc(-c3ccncc3)c(-c3cc(O)cc(Cl)c3)n2)c1)c1ccc(N2CCOCC2)c(C(F)(F)F)c1 :: no

// switching to the query compound
Request: Is it true that GI50 reported for COc1cc(Cl)cc(-c2nn(-c3cccc(NC(=O)Nc4ccc(Cl)c(C(F)(F)F)c4)c3)cc2-c2ccncc2)c1 is less than 2000 nM?
Response: yes

* * *

# Tested on: SF-295
# PROTOCOL DESCRIPTION: Growth inhibition of human SF295 cells assessed as cell growth at 10 uM incubated for 48 hrs by sulforhodamine B assay relative to control
# Format: functional
# CONDITION NOTES: SF-295, 48 h, read-out: Activity
MEASURED METRIC: growth at 10 µM

Here's what some known entries look like.
COc1cc(Cl)cc(-c2nn(-c3cccc(NC(=O)Nc4ccc(Cl)c(C(F)(F)F)c4)c3)cc2-c2ccncc2)c1 :: -7.48%
COc1cc(Cl)cc(-c2nn(-c3cccc(NC(=O)Nc4cccc(C(F)(F)F)c4)c3)cc2-c2ccncc2)c1 :: -7.87%
COc1cc(Cl)cc(-c2nn(-c3cccc(NC(=O)Nc4cc(C(F)(F)F)cc(C(F)(F)F)c4)c3)cc2-c2ccncc2)c1 :: -43.2%
O=C(Nc1cccc(-n2cc(-c3ccncc3)c(-c3cc(O)cc(Cl)c3)n2)c1)Nc1ccc(Cl)c(C(F)(F)F)c1 :: 14.3%

// growth at 10 µM lookup, compound = COc1cc(Cl)cc(-c2nn(-c3cccc(NC(=O)c4cc(C(F)(F)F)cc(C(F)(F)F)c4)c3)cc2-c2ccncc2)c1 , result: 42.1%
